experiment: Inhibitory concentration of [3H]- nitrendipine binding against guinea pig cerebral cortex membrane; type: functional, tissue-based, Cavia porcellus
Binary label based on IC50 with cut-off 10 nM: below gives Fulfilled, not below gives Not fulfilled.

Observe how each entry below is paired with its result.
INPUT_SMILES | GROUP
COc1ccc(CCN(C)CCCOc2ccc(S(=O)(=O)c3c(C(C)C)nn4ccccc34)cc2)cc1OC | Fulfilled
COc1ccc(CCN(C)CCCOc2ccc(S(=O)(=O)c3c(C(C)C)cn4ccccc34)cc2)cc1OC | Fulfilled
CCCCN(CCCC)CCCOc1ccc(S(=O)(=O)c2c(C(C)C)n(C)c3ccccc23)cc1 | Not fulfilled
CC(C)c1occc1S(=O)(=O)c1ccc(OCCCNC(C)(C)C)cc1 | Not fulfilled

Does CCCCN(CCCC)CCCOc1ccc(S(=O)(=O)c2c(C(C)C)cc3ccccn23)cc1 have IC50 strictly under 10 nM?
Fulfilled

Below 10 nM on IC50? Entry CCCCN(CCCC)CCCOc1ccc(S(=O)(=O)c2ccoc2C(C)C)cc1
Not fulfilled

Please state whether IC50 is below 10 nM for COc1cc(CCN(C)CCCOc2ccc(S(=O)(=O)c3c(C(C)C)c4ccccc4n3C)cc2)cc(OC)c1OC
Fulfilled
